# MEASUREMENT_TARGET: hERG (KCNH2) (Homo sapiens, UniProt Q12809)
# Sequence (Q12809 whole entry): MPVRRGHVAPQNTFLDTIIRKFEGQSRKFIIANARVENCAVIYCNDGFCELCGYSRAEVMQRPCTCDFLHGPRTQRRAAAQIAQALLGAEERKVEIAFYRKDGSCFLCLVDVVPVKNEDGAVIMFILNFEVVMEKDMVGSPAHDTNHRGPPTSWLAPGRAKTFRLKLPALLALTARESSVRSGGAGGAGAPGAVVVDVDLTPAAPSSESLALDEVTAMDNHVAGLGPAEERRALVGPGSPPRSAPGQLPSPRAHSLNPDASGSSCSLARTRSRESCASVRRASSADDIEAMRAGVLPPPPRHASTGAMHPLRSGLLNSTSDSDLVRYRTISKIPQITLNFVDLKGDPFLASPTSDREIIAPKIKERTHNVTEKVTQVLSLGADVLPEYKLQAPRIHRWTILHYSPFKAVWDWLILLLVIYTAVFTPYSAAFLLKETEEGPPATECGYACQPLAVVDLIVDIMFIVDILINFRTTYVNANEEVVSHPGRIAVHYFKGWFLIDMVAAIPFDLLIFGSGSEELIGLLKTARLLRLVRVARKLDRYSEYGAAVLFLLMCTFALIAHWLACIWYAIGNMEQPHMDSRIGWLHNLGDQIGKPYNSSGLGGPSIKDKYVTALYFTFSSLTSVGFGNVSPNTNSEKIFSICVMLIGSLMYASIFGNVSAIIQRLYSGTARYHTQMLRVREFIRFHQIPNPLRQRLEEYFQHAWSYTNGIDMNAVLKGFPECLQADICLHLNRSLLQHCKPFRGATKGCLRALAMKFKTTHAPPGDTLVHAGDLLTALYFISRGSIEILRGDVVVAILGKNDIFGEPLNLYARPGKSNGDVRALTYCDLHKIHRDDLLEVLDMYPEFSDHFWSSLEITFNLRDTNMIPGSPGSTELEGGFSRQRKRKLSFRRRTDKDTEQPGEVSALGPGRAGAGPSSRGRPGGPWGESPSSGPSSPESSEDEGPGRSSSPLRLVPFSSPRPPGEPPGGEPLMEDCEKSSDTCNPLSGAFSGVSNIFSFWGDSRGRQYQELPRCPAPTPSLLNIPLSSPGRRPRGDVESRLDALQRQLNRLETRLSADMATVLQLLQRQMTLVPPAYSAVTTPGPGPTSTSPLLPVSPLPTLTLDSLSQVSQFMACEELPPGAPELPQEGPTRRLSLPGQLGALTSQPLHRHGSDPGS
# TEST_SUMMARY: Inhibition of human ERG expressed in CHO-K1 cells at 10 uM by whole-cell patch clamp technique
# Type: cell-based
# RECORDED_CONDITIONS: CHO-K1 cells that express human ERG
Form field: inhibition at 10 µM (one value per entry).
MEASURED_PROPERTY: inhibition at 10 µM (%)

{"MOLECULE": "Cc1nc2c3c(c(C(=O)N(C)C)cc2n1C)CC[C@@H](c1cccs1)O3", "MEASURED_PROPERTY": "inhibition at 10 µM", "UNIT_SPEC": "%", "REPORTED": 9}
{"MOLECULE": "COC1CN(C(=O)c2cc3c(nc(C)n3C)c3c2CC[C@@H](c2ccc(Cl)cc2C)O3)C1", "MEASURED_PROPERTY": "inhibition at 10 µM", "UNIT_SPEC": "%", "REPORTED": 95}
{"MOLECULE": "Cc1nc2c3c(c(C(=O)N(C)C)cc2n1C)CC[C@@H](c1ccccc1C1CC1)O3", "MEASURED_PROPERTY": "inhibition at 10 µM", "UNIT_SPEC": "%", "REPORTED": 18}
{"MOLECULE": "Cc1ccccc1[C@@H]1CCc2c(C(=O)N3CC(F)C3)cc3c(nc(C)n3C)c2O1", "MEASURED_PROPERTY": "inhibition at 10 µM", "UNIT_SPEC": "%", "REPORTED": 28}
{"MOLECULE": "Cc1nc2c3c(c(C(=O)N4CCC4)cc2n1C)CC[C@@H](c1ccc(Cl)cc1)O3", "MEASURED_PROPERTY": "inhibition at 10 µM", "UNIT_SPEC": "%", "REPORTED": 84}
{"MOLECULE": "COCCN(C)C(=O)c1cc2c(nc(C)n2C)c2c1CC[C@@H](c1ccccc1C)O2", "MEASURED_PROPERTY": "inhibition at 10 µM", "UNIT_SPEC": "%", "REPORTED": 8}
{"MOLECULE": "Cc1ccccc1[C@@H]1CCc2c(C(=O)N3CC(O)C3)cc3c(nc(C)n3C)c2O1", "MEASURED_PROPERTY": "inhibition at 10 µM", "UNIT_SPEC": "%", "REPORTED": 11}
{"MOLECULE": "Cc1ccccc1[C@@H]1CCc2c(C(=O)N3CCC3C(N)=O)cc3c(nc(C)n3C)c2O1 (some centres undefined)", "MEASURED_PROPERTY": "inhibition at 10 µM", "UNIT_SPEC": "%", "REPORTED": 7}
{"MOLECULE": "Cc1nc2c3c(c(C(=O)N(C)C)cc2n1C)CC[C@@H](c1ccc(Cl)cc1Cl)O3", "MEASURED_PROPERTY": "inhibition at 10 µM", "UNIT_SPEC": "%", "REPORTED": 59}

====

# TEST_SUMMARY: Partition coefficient, log D by HPLC
# Type: physicochemical
# RECORDED_CONDITIONS: octanol/water
Quick rule: logD of at least 3 means TRUE, below that means FALSE.

{"COMPOUND": "Cc1ccccc1[C@@H]1CCc2c(C(=O)N3CCC3C(N)=O)cc3c(nc(C)n3C)c2O1 (stereo not given in full)", "DISCRETE_LABEL": "FALSE"}
{"COMPOUND": "CONC(=O)c1cc2c(nc(C)n2C)c2c1CC[C@@H](c1ccccc1C)O2", "DISCRETE_LABEL": "FALSE"}
{"COMPOUND": "COCc1cc2c(nc(C)n2C)c2c1CC[C@@H](c1ccccc1C)O2", "DISCRETE_LABEL": "TRUE"}
{"COMPOUND": "Cc1ccccc1[C@@H]1CCc2c(C(=O)N3CCOCC3)cc3c(nc(C)n3C)c2O1", "DISCRETE_LABEL": "FALSE"}

====

# TEST_SUMMARY: Partition coefficient, log D by HPLC
# Format: physicochemical
# RECORDED_CONDITIONS: octanol/water
Form field: logD (one value per entry).

{"MOLECULE": "Cc1cc(Cl)ccc1[C@@H]1CCc2c(C(=O)N3CCC3)cc3c(nc(C)n3C)c2O1", "logD": 3.2}
{"MOLECULE": "Cc1sccc1[C@@H]1CCc2c(C(=O)N(C)C)cc3c(nc(C)n3C)c2O1", "logD": 2.7}
{"MOLECULE": "Cc1nc2c3c(c(C(=O)N4CCC4)cc2n1C)CC[C@@H](c1ccccc1)O3", "logD": 2.6}
{"MOLECULE": "Cc1ccccc1[C@@H]1CCc2c(C(=O)NCC3CCCCO3)cc3c(nc(C)n3C)c2O1 (stereo not given in full)", "logD": 3.3}
{"MOLECULE": "Cc1ccccc1[C@@H]1CCc2c(C(=O)N3CCCC3)cc3c(nc(C)n3C)c2O1", "logD": 3.1}
{"MOLECULE": "Cc1ccccc1[C@@H]1CCc2c(C(=O)N(C)C)cc3c(nc(C)n3C)c2O1", "logD": 2.8}
{"MOLECULE": "COCCN(C)C(=O)c1cc2c(nc(C)n2C)c2c1CC[C@@H](c1ccccc1C)O2", "logD": 2.9}
{"MOLECULE": "Cc1nc2c3c(c(C(=O)N(C)C)cc2n1C)CC[C@@H](c1ccccc1C1CC1)O3", "logD": 3.1}
{"MOLECULE": "Cc1ccccc1[C@@H]1CCc2c(C(=O)NCC3CCCO3)cc3c(nc(C)n3C)c2O1 (stereo not given in full)", "logD": 3}
{"MOLECULE": "CNC(=O)c1cc2c(nc(C)n2C)c2c1CC[C@@H](c1ccccc1C)O2", "logD": 2.7}
{"MOLECULE": "Cc1ccccc1[C@@H]1CCc2c(C(N)=O)cc3c(nc(C)n3C)c2O1", "logD": 2.5}
{"MOLECULE": "Cc1ccccc1[C@@H]1CCc2c(C(=O)N(C)C)cc3c(nc(C4CC4)n3C)c2O1", "logD": 3.3}
{"MOLECULE": "CCCNC(=O)c1cc2c(nc(C)n2C)c2c1CC[C@@H](c1ccccc1C)O2", "logD": 3.2}
{"MOLECULE": "COCc1ccccc1[C@@H]1CCc2c(C(=O)N(C)C)cc3c(nc(C)n3C)c2O1", "logD": 2.6}
{"MOLECULE": "Cc1nc2c3c(c(C(=O)N(C)C)cc2n1C)CC[C@@H](c1ccccc1)O3", "logD": 2.5}
{"MOLECULE": "Cc1ccccc1[C@@H]1CCc2c(C(=O)NC3COC3)cc3c(nc(C)n3C)c2O1", "logD": 2.6}
{"MOLECULE": "CCCOC1CN(C(=O)c2cc3c(nc(C)n3C)c3c2CC[C@@H](c2ccccc2C)O3)C1", "logD": 3.3}
{"MOLECULE": "Cc1nc2c3c(c(C(=O)N(C)C)cc2[nH]1)CC[C@@H](c1ccccc1C)O3", "logD": 2.8}
{"MOLECULE": "Cc1ccccc1[C@@H]1CCc2c(C(=O)N3CC(C(=O)N(C)C)C3)cc3c(nc(C)n3C)c2O1", "logD": 2.5}
{"MOLECULE": "Cc1nc2c3c(c(C(=O)N(C)C)cc2n1C)CC[C@@H](c1ccc(Cl)cc1)O3", "logD": 2.9}

====

# TEST_SUMMARY: Dissociation constant, pKa at pH 2.0 to 11.0 by potentiometric cosolvent titration
# Format: physicochemical
Form field: pKa (one value per entry).
MEASURED_PROPERTY: pKa

{"SMILES_TEXT": "Cc1ccccc1[C@@H]1CCc2c(C(=O)NCC3CC3)cc3c(nc(C)n3C)c2O1", "REPORTED": 5.76}
{"SMILES_TEXT": "CC(=O)CNC(=O)c1cc2c(nc(C)n2C)c2c1CC[C@@H](c1ccccc1C)O2", "REPORTED": 5.62}
{"SMILES_TEXT": "CON(C)C(=O)c1cc2c(nc(C)n2C)c2c1CC[C@@H](c1ccccc1C)O2", "REPORTED": 5.49}
{"SMILES_TEXT": "CCCOC1CN(C(=O)c2cc3c(nc(C)n3C)c3c2CC[C@@H](c2ccccc2C)O3)C1", "REPORTED": 5.62}
{"SMILES_TEXT": "Cc1ccccc1[C@@H]1CCc2c(C(=O)N3CCCC3)cc3c(nc(C)n3C)c2O1", "REPORTED": 5.7}
{"SMILES_TEXT": "Cc1nnc(-c2cc3c(nc(C)n3C)c3c2CC[C@@H](c2ccccc2C)O3)o1", "REPORTED": 5.17}
{"SMILES_TEXT": "Cc1ccccc1[C@@H]1CCc2c(C(=O)N(C)C)cc3c(nc(C)n3C)c2O1", "REPORTED": 5.68}
{"SMILES_TEXT": "C#CCNC(=O)c1cc2c(nc(C)n2C)c2c1CC[C@@H](c1ccccc1C)O2", "REPORTED": 5.58}
{"SMILES_TEXT": "CCNC(=O)c1cc2c(nc(C)n2C)c2c1CC[C@@H](c1ccccc1C)O2", "REPORTED": 5.71}
{"SMILES_TEXT": "Cc1ccccc1[C@@H]1CCc2c(C(=O)NC3CC3)cc3c(nc(C)n3C)c2O1", "REPORTED": 5.68}
